From: patent US20230113037A1

Provide the reported log10 IC50 of each item.
Target: AHR (Homo sapiens)
Construct: U87 MG glioblastoma cells (ATCC #HTB-14) endogenously expressing AHR; endogenous in cells; host or cells: U87 MG glioblastoma cells (ATCC #HTB-14)
Sequence (P35869 11-848): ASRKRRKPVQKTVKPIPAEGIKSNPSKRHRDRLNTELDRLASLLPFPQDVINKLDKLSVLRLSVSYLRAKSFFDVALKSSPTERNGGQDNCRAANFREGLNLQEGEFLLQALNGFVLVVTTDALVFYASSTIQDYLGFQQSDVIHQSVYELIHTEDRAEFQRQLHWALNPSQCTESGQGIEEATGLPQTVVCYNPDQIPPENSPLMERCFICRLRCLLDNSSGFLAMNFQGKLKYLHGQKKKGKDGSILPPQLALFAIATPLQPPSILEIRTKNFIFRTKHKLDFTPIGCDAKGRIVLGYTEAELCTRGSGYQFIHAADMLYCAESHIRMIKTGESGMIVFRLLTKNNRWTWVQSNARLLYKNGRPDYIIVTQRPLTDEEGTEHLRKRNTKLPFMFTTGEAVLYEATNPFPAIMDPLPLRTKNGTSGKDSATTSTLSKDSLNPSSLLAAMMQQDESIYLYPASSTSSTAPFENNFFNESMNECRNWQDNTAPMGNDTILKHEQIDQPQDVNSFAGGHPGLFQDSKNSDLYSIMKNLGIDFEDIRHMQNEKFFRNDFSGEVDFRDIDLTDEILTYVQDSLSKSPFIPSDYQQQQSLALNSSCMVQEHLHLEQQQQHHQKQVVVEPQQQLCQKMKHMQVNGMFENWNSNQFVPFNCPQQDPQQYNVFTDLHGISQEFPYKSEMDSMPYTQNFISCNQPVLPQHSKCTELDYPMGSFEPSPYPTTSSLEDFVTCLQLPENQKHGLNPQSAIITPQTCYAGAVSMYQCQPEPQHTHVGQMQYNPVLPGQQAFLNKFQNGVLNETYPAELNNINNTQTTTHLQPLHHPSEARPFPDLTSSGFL
Assay: In vitro assay 1: antagonism in human cell line (AHR transactivation, firefly luciferase reporter, kynurenic acid prestimulated)
Type: cell-based
Details: AHR Antagonism Human IC50 [M]
# values: log10(IC50), units M

**Q:** Read the entry COc1cccc(-c2nc3c4ccccc4nc(N[C@H](C)C(=O)NC4CC4)n3n2)c1 [Example 106] and write its reported log10 IC50.
**A:** -8.10

**Q:** Read the entry CC[C@H](Nc1nc2c(Br)cccc2c2nc(-c3ccc(C#N)cc3)nn12)C(N)=O [Example 564] and write its reported log10 IC50.
**A:** -7.91

**Q:** Read the entry N#Cc1ccc(-c2nc3c4cccc(Br)c4nc(N[C@@H]4CCCCNC4=O)n3n2)cc1 [Example 558] and write its reported log10 IC50.
**A:** -8.22

**Q:** Read the entry Cc1ncc(-c2nc3c4ccccc4nc(N[C@@H]4CCCCNC4=O)n3n2)cc1F [Example 641] and write its reported log10 IC50.
**A:** -8.16

**Q:** Read the entry O=C1NCC[C@H]1Nc1nc2ccccc2c2nc(-c3ccccc3OC(F)F)nn12 [Example 473] and write its reported log10 IC50.
**A:** -7.29

**Q:** Read the entry O=C1NCCCCCC1Nc1nc2ccccc2c2nc(-c3ccc(Cl)cc3OC(F)F)nn12 (stereo not shown) [Example 529] and write its reported log10 IC50.
**A:** -8.55

**Q:** Read the entry N#Cc1cccc2nc(N[C@@H]3CCCCNC3=O)n3nc(-c4ccc(F)cc4)nc3c12 [Example 248] and write its reported log10 IC50.
**A:** -8.24

**Q:** Read the entry O=C1NCCCC[C@H]1Nc1nc2c(C(F)(F)F)cccc2c2nc(-c3cnn(C(F)F)c3)nn12 [Example 736] and write its reported log10 IC50.
**A:** -9.11

**Q:** Read the entry COc1cccc2c1nc(N[C@@H]1CCCCNC1=O)n1nc(-c3cn(C)nn3)nc21 [Example 756] and write its reported log10 IC50.
**A:** -5.35

**Q:** Read the entry CC[C@@H](Nc1nc2ccccc2c2nc(-c3ccc(Cl)cc3OC(F)(F)F)nn12)C(N)=O [Example 523] and write its reported log10 IC50.
**A:** -8.30

**Q:** Read the entry Cc1cccc(C)c1-c1nc2c3ccccc3nc(N[C@@H]3CCCCNC3=O)n2n1 [Example 623] and write its reported log10 IC50.
**A:** -6.47

**Q:** Read the entry CCOC(=O)[C@@H](C)Nc1nc2ccccc2c2nc(-c3ccc(OC)cc3)nn12 [Example 657] and write its reported log10 IC50.
**A:** -7.85

**Q:** Read the entry Cc1[nH]ncc1-c1nc2c3ccccc3nc(N[C@@H]3CCCCNC3=O)n2n1 [Example 609] and write its reported log10 IC50.
**A:** -6.80

**Q:** Read the entry CCCCNC(=O)[C@H](C)Nc1nc2ccccc2c2nc(-c3ccc(Cl)cc3OC(F)F)nn12 [Example 533] and write its reported log10 IC50.
**A:** -8.43

**Q:** Read the entry COc1ccc(-c2nc3c4ccc(OC)cc4nc(N[C@@H]4CCCCNC4=O)n3n2)cc1 [Example 549] and write its reported log10 IC50.
**A:** -7.13

**Q:** Read the entry COC(=O)[C@H](Nc1nc2ccccc2c2nc(-c3cccc(OC)c3)nn12)C(C)C [Example 104] and write its reported log10 IC50.
**A:** -7.95

**Q:** Read the entry C[S+]([O-])c1ccccc1-c1nc2c3ccccc3nc(N[C@@H]3CCCCNC3=O)n2n1 (mixture of isomers) [Example 648] and write its reported log10 IC50.
**A:** -8.16

**Q:** Read the entry Cc1ccccc1-c1nc2c3ccccc3nc(NC3CCCNC3=O)n2n1 (stereo not shown) [Example 44] and write its reported log10 IC50.
**A:** -7.80

**Q:** Read the entry O=C1NCCCC[C@H]1Nc1nc2ccccc2c2nc(-c3ccccc3OC(F)F)nn12 [Example 470] and write its reported log10 IC50.
**A:** -8.87

**Q:** Read the entry COc1ccc(-c2nc3c4ccc(C)cc4nc(N[C@@H]4CNCCNC4=O)n3n2)cc1 [Example 274] and write its reported log10 IC50.
**A:** -5.96

**Q:** Read the entry O=C1NCCCC[C@H]1Nc1nc2c(C(F)(F)F)cccc2c2nc(-c3cccc(F)c3)nn12 [Example 581] and write its reported log10 IC50.
**A:** -8.77

**Q:** Read the entry Cc1sccc1-c1nc2c3ccccc3nc(N[C@@H]3CCCCNC3=O)n2n1 [Example 346] and write its reported log10 IC50.
**A:** -8.65

**Q:** Read the entry O=C1NCCCC[C@H]1Nc1nc2ccccc2c2nc(-c3cnn(C4CCC4)c3)nn12 [Example 603] and write its reported log10 IC50.
**A:** -8.39

**Q:** Read the entry Cn1cc(-c2nc3c4ccc(C(F)(F)F)cc4nc(N[C@@H]4CCCCNC4=O)n3n2)cn1 [Example 227] and write its reported log10 IC50.
**A:** -5.58
